Molecular target: SARS-CoV-2 3CL^pro (Severe acute respiratory syndrome coronavirus 2, UniProt P0DTD1)
Test: Microscale thermophoresis
Assay type: binding
Settings: Kd(M), MST, target 100 nM, ligand 0.0153 μM–500 μM, MST power 40%
reported.endpoint: Kd (M)
Give the number; M is assumed, so skip it.

Input line: // fetch Kd given entry C=C(C)[C@@H]1CC[C@]2(C(=O)O)CC[C@]3(C)[C@H](CC[C@@H]4[C@@]5(C)CC[C@H](OC(=O)CC(C)(C)C(=O)O)C(C)(C)[C@@H]5CC[C@]43C)[C@@H]12
Output line: 1.05e-05

###

Target: SARS-CoV-2 3CL^pro (Severe acute respiratory syndrome coronavirus 2, UniProt P0DTD1)
Assay: Microscale thermophoresis
Type: binding
Settings: Kd(M)
reported.endpoint: Kd (M)
Report only the number, with the unit M understood.

Input line: Return Kd for the following compound: Cc1c(O)cccc1C(=O)N[C@@H](CSc1ccccc1)[C@H](O)CN1C[C@H]2CCCC[C@H]2C[C@H]1C(=O)NC(C)(C)C
Output line: 9.16e-05
